Entries and their Tmax values follow.
# protocol_summary: Pharmacokinetic study in rats
# applied_conditions: rat, plasma, po, 3 mg/kg
readout_label: Tmax (h)

compound	reported_measurement
COc1cc2c(cc1Nc1ncc(Cl)c(Nc3cccnc3N3CCCC3=O)n1)OC[C@H]1CN(C3CCN(C(C)=O)CC3)CCN21 [Compound E11R]	1.33
COc1cc2c(cc1Nc1ncc(Cl)c(Nc3cccnc3N3CCCC3=O)n1)OC[C@H]1CN(C(=O)C3CC3)CCN21	0.5
COc1cc2c(cc1Nc1ncc(C(F)(F)F)c(CCc3ccccc3CC(N)=O)n1)OC[C@H]1CN(C)CCN21	2.7

----------
Entries and their Cmax values follow.
# protocol_summary: Pharmacokinetic study in rats
# applied_conditions: rat, plasma, po, 3 mg/kg

entry_smiles	Cmax / ng/mL
COc1cc2c(cc1Nc1ncc(C(F)(F)F)c(CCc3ccccc3CC(N)=O)n1)OC[C@H]1CN(C3CN(C)C3)CCN21	61.8
CNC(=O)c1ccccc1Nc1cc(Nc2cc3c(cc2OC)N2CCN(C4CCN(C)CC4)C[C@H]2CO3)ncc1C(F)(F)F	134
CCc1cc2c(cc1Nc1ncc(C(F)(F)F)c(NCCCN3CCOCCC3=O)n1)OC[C@@H]1CN(C3CCN(C)CC3)CCN21	11.8
